Recorded values, source the Human Domainome abundance scans (Beltran et al. 2025).

Below: a set of entries, each annotated with reported abundance fitness.
B1: Pre-mRNA-processing factor 40 homolog B, residues 274 to 332; numbered along this chain, Q6NWY9 (parent)
chain: SNREKAKQAFKELLRDKAVPSNASWEQAMKMVVTDPRYSALPKLSEKKQAFNAYKAQRE

Variants of: B1
assay explanation: abundance fitness (aPCA) (normalised: wild type 0, dead -1); higher = more abundant; growth selection in yeast, the domain comes from the species named
condition info: Homo sapiens
Answer with a number only.

Some entries whose results are on file:
>>> number("E4A")
-1.5
>>> number("K17E")
-0.437
>>> number("P20I")
-0.753
>>> number("P42Q")
-0.316
>>> number("Y38H")
-0.392
>>> number("F10I")
-0.25
>>> number("L41V")
-0.16
>>> number("A56H")
-0.102

Query: So what's the measured abundance fitness for this one? `K5N`
Result: -0.081

Query: So what's the measured abundance fitness for this one? `S24F`
Result: -0.654

Query: So what's the measured abundance fitness for this one? `K48Y`
Result: -0.259

Query: So what's the measured abundance fitness for this one? `A18I`
Result: -0.536

Query: So what's the measured abundance fitness for this one? `S45R`
Result: -0.303

Query: So what's the measured abundance fitness for this one? `A40Y`
Result: -0.368

Query: So what's the measured abundance fitness for this one? `Q8R`
Result: -0.241

Query: So what's the measured abundance fitness for this one? `E59L`
Result: -0.424

Query: So what's the measured abundance fitness for this one? `R15Y`
Result: -0.091

Query: So what's the measured abundance fitness for this one? `K48H`
Result: -0.335

Query: So what's the measured abundance fitness for this one? `K7M`
Result: 0.144

Query: So what's the measured abundance fitness for this one? `D16W`
Result: -0.579
